Values from patent US20240398781A1

Target: human EBP (Homo sapiens (Human))
Sequence (Q15125 whole entry): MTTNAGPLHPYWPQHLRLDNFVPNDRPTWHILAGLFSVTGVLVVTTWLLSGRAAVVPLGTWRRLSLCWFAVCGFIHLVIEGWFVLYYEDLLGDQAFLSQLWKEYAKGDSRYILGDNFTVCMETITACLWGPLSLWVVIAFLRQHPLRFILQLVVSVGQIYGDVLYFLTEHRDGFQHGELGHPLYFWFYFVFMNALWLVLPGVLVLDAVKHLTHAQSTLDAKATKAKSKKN
Test: Competition binding assay (SPA, [3H]-Ifenprodil) to determine compound affinity to EBP
Conditions: [3H]-Ifenprodil 10 nM, HEK293 membrane overexpressing human EBP, Ki=IC50/(1+[L]/Kd); read-out: hEBP SPA Ki
pKi: −log10 of the molar value.
result_type: pKi

O=S1(=O)CC2(CCN(C3CCN(c4ccc(C(F)(F)F)nc4)CC3)C2)C1 :: 7.17
CC(C)n1nc(C2CC2)nc1[C@H]1CC[C@H](N2CCC3(C2)CS(=O)(=O)C3)C1 (single isomer, unassigned) [18B*] :: 6.68

P. CC(C)n1nc(C(F)(F)F)cc1[C@H]1CC[C@H](N2CCC3(C2)CS(=O)(=O)C3)C1 (single isomer, unassigned) [10A*]
Q. O=S1(=O)CC2(CCN([C@@H]3CCN(c4ccc(C(F)(F)F)nc4)C3)C2)C1 (single isomer, unassigned)
Query :: Endpoint returns the identifier whose pKi is numerically larger, either P or Q . State your choice using its label.
Result :: P
(P: 7.47, Q: 6.77)

###

Molecular target: human EBP (Homo sapiens (Human))
Test: Competition binding assay (SPA, [3H]-Ifenprodil) to determine compound affinity to EBP
Settings: [3H]-Ifenprodil 10 nM, HEK293 membrane overexpressing human EBP, Ki=IC50/(1+[L]/Kd); read-out: hEBP SPA Ki
pKi: −log10 of the molar value.
result_type: pKi

CC(C)n1nc(C(F)(F)F)cc1[C@@H]1CC[C@H](N2CCC3(C2)CS(=O)(=O)C3)C1 (single isomer, unassigned) [10C*] :: 7.54
O=S1(=O)CC2(CCN([C@H]3CO[C@H](c4ccc(C(F)(F)F)cc4)C3)C2)C1 (stereo in doubt) [19D*] :: 7.49
Cn1nc(C(F)(F)F)cc1[C@H]1CC[C@@H](N2CC[C@@]3(CCS(=O)(=O)C3)C2)CC1 (single isomer, unassigned) [38B*] :: 7.62

###

Molecular target: human emopamil binding protein and human 7-dehydrocholesterol reductase co-expressing cells (hEBP-DHCR7 membrane) (Homo sapiens (Human))
result_type: Ki (nM)

O=S1(=O)CC2(CCN([C@H]3CC[C@H](c4ccc(C(F)(F)F)cc4)C3)C2)C1 [Compound 1D] :: 15

1. CC(C)n1nc(-c2ccc(C(F)(F)F)cc2)nc1[C@H]1CC[C@H](N2CCC3(C2)CS(=O)(=O)C3)C1 (single isomer, unassigned) [53A*]
2. O=S1(=O)CC2(CCN([C@H]3CC[C@@H](c4cncc(C(F)(F)F)c4)CC3)C2)C1 [Compound 63B]
3. CC(C)[C@H]1CC(N2CCC3(C2)CS(=O)(=O)C3)CCN1c1ccc(C(F)(F)F)nc1 (stereo in doubt) [82C*]
4. CC(C)n1nc(C(F)(F)F)cc1[C@H]1CCC[C@@H](N2CCC3(C2)CS(=O)(=O)C3)C1 (single isomer, unassigned) [61B*]
Query :: List from greatest to least Ki. Form entry: labels listed in requested order.
Result :: 2, 3, 4, 1

###

Biological target: human emopamil binding protein and human 7-dehydrocholesterol reductase co-expressing cells (hEBP-DHCR7 membrane) (Homo sapiens (Human))
pKi: −log10 of the molar value.
result_type: pKi

O=S1(=O)CC2(CCN([C@@H]3CC[C@H](c4ccc(C(F)(F)F)cc4)C3)C2)C1 [Compound 1C] :: 7.96

I. CCn1nc([C@H]2CC[C@H](N3CCC4(C3)CS(=O)(=O)C4)CC2)cc1C(F)(F)F [Compound 16]
II. O=S1(=O)CC2(CCN([C@H]3CC[C@@H](c4ncc(C(F)(F)F)cc4F)CC3)CC2)C1 [Compound 80B]
III. O=S1(=O)CC2(CCN([C@H]3CC[C@H](c4ccnc(C(F)(F)F)c4)CC3)C2)C1 [Compound 60A]
Query :: Sort low-to-high on pKi, please. Write the labels, ordered according to the request.
Result :: III, I, II
(III: 6.88, I: 7.28, II: 7.55)

A. O=S1(=O)CC2(CCN(C3CC[C@H](c4ccc(C(F)(F)F)nc4)C3)C2)C1 (single isomer, unassigned) [11D*]
B. Cn1nc(C(F)(F)F)cc1[C@H]1CC[C@@H](N2CC[C@]3(CCS(=O)(=O)C3)C2)CC1 (single isomer, unassigned) [38A*]
Query :: Compare pKi: is it lower for A or for B ? Reply with the label of the item you choose.
Result :: B
(B: 7.09, A: 7.40)

A. CCn1nc(C(F)(F)F)cc1[C@H]1CC[C@H](N2CCC3(C2)CS(=O)(=O)C3)CC1 [Compound 15]
B. CC(C)n1nc(C(F)(F)F)cc1[C@@H]1CC[C@H](N2CCC3(C2)CS(=O)(=O)C3)C1 (single isomer, unassigned) [10C*]
Query :: Compare A and B by numeric pKi and name the larger one. Pick one; state its label.
Result :: B

1. CC(C)n1nc(C(F)(F)F)cc1[C@H]1CCC[C@H](N2CCC3(CC2)CS(=O)(=O)C3)C1 (single isomer, unassigned) [78D*]
2. Cc1nc(C(F)(F)F)ccc1[C@H]1CC[C@@H](N2CCC3(C2)CS(=O)(=O)C3)CC1 [Compound 51B]
Query :: Look at 1 and 2 . Which one has the lower recorded pKi number? // output: label of the selected item
Result :: 1

a. CC(C)n1nc(C(F)(F)F)cc1[C@H]1CC[C@H](N2CCC[C@@]3(CCS(=O)(=O)C3)C2)CC1 (single isomer, unassigned) [91B*]
b. O=S1(=O)CC2(CCN(C3CCN(c4ncc(F)cc4C(F)(F)F)CC3)C2)C1 [Compound 45]
c. O=S1(=O)CC2(CCN([C@H]3CC[C@@H](c4ccc(C(F)(F)F)nc4)C3)C2)C1 (single isomer, unassigned) [Compound 11A]
d. CC(C)(C)n1nc(C2CC2)nc1[C@H]1CC[C@@H](N2CCC3(C2)CS(=O)(=O)C3)C1 [Compound 74B]
Query :: Arrange the 4 entries by pKi so the values rise. Answer with the labels in sequence, matching the requested order.
Result :: d, a, c, b
(d: 6.31, a: 6.51, c: 7.42, b: 7.77)

P. O=S1(=O)CC2(CCN([C@H]3CC[C@H](c4cc(C(F)(F)F)n(C5CCC5)n4)CC3)C2)C1 [Compound 24]
Q. Cn1nc(C(F)(F)F)cc1[C@H]1CC[C@@H](N2CCC3(CC2)CS(=O)(=O)C3)CC1 [Compound 25A]
Query :: // select label with min value of measured pKi from [ P , Q ] The response must carry the label of the picked entry.
Result :: Q

P. CC(C)n1nc(C(F)(F)F)cc1[C@H]1CC[C@@H](N2CCC3(C2)CS(=O)(=O)C3)C1 (single isomer, unassigned) [10B*]
Q. Cc1cc(C(F)(F)F)cnc1[C@H]1CC[C@@H](N2CCC3(C2)CS(=O)(=O)C3)CC1 [Compound 47A]
R. CC(C)n1nc(C(F)(F)F)cc1[C@H]1CCC[C@H](N2CCC3(C2)CS(=O)(=O)C3)C1 (single isomer, unassigned) [61D*]
S. O=S1(=O)CC[C@@]2(CCCN([C@H]3CC[C@H](c4ccc(C(F)(F)F)cn4)CC3)C2)C1 (single isomer, unassigned) [68B*]
Query :: Please list these in order of increasing pKi. Thank you! Give the order by naming the labels one after another as requested.
Result :: R, S, P, Q
(R: 6.46, S: 7.39, P: 7.67, Q: 7.96)

a. CCc1nc(C(F)(F)F)ccc1[C@H]1CC[C@@H](N2CCC3(C2)CS(=O)(=O)C3)CC1 [Compound 64B]
b. O=S1(=O)CC2(CCN([C@H]3CC[C@@H](c4ccnc(C(F)(F)F)c4)CC3)C2)C1 [Compound 60B]
Query :: When a and b are compared, which has the higher number for pKi? Response format: the label of the selected entry.
Result :: a

###

Molecular target: human emopamil binding protein and human 7-dehydrocholesterol reductase co-expressing cells (hEBP-DHCR7 membrane) (Homo sapiens (Human), UniProt Q15125)
pKi: −log10 of the molar value.
result_type: pKi

a. O=S1(=O)CC2(CCN([C@H]3CCCN(c4ccc(C(F)(F)F)cc4)C3)CC2)C1 (single isomer, unassigned) [55B*]
b. O=S1(=O)CC[C@]2(CCCN([C@H]3CC[C@H](c4cc(C(F)(F)F)nn4C4CC4)CC3)C2)C1 (single isomer, unassigned) [69D*]
c. O=S1(=O)CC2(CCN([C@H]3CC[C@H](c4ccc(C(F)(F)F)nc4)CC3)CC2)C1 [81A*]
d. O=S1(=O)CC2(CCN([C@H]3CC[C@@H](c4cccc(C(F)(F)F)n4)CC3)C2)C1 [Compound 62A]
Query :: Sort key: pKi. Order: high to low. Scope: items listed above. // format: requested-order list of labels
Result :: a, d, b, c

###

Target: human emopamil binding protein and human 7-dehydrocholesterol reductase co-expressing cells (hEBP-DHCR7 membrane) (Homo sapiens (Human))
pKi: −log10 of the molar value.
result_type: pKi

I. O=S1(=O)CC2(CCN([C@H]3CO[C@H](c4ccc(C(F)(F)F)cc4)C3)C2)C1 (stereo in doubt) [19D*]
II. CC(C)c1nc(C(F)(F)F)ccc1[C@H]1CC[C@@H](N2CCC3(C2)CS(=O)(=O)C3)CC1 [Compound 65B]
III. O=S1(=O)CC2(CCN([C@@H]3CCN(c4ccc(C(F)(F)F)nc4)C3)C2)C1 (single isomer, unassigned)
IV. CC(C)c1nc(C(F)(F)F)ccc1[C@H]1CC[C@H](N2CCC3(C2)CS(=O)(=O)C3)CC1 [Compound 65A]
Query :: Task for the reader: place the compounds above in descending order according to recorded pKi. When ranking, write the labels in the order the request describes.
Result :: II, IV, I, III

1. CC(C)n1nc(C(F)(F)F)cc1[C@@H]1CCC[C@H](N2CCC3(C2)CS(=O)(=O)C3)C1 (single isomer, unassigned) [61C*]
2. CC(C)n1nc(-c2cccc(C(F)(F)F)n2)cc1[C@H]1CC[C@H](N2CCC3(CC2)CS(=O)(=O)C3)C1 (single isomer, unassigned) [46D*]
Query :: Select the item whose pKi value is smaller, choosing between 1 and 2 . Give the label of your selection.
Result :: 1
(1: 7.51, 2: 7.92)
